Molecular target: T1, RlpA-Δ32·MltF2 complex (MST) (P. aeruginosa PAO1, UniProt Q9X6V6;Q9HZY1, amine reactive RED-NHS dye)
T1 sequence 1: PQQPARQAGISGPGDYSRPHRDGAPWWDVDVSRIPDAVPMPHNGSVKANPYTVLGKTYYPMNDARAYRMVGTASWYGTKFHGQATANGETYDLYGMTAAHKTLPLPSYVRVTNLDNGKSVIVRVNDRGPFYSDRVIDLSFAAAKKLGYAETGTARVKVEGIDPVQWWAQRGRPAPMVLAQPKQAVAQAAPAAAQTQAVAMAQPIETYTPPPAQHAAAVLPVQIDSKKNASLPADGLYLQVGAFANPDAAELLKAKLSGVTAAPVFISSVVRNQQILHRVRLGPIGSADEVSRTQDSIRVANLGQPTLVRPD
T1 sequence 2: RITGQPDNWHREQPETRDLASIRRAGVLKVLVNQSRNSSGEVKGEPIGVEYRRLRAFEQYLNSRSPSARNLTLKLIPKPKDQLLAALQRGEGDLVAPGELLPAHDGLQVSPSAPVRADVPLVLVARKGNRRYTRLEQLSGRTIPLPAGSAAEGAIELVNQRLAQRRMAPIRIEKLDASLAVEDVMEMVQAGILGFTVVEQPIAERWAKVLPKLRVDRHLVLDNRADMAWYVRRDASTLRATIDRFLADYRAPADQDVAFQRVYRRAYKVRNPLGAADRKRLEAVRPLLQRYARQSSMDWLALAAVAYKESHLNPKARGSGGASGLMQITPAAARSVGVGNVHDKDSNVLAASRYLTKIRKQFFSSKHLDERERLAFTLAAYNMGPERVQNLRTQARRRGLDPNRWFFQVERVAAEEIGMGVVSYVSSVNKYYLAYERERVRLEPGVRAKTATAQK
Experiment: MST
Conditions: both partners purified
property-measured: Kd (nM)
Answers are plain numbers, in nM.

Qu. Value lookup for Kd; key = PilO (natural protein, source: E. coli, purified (Ni-NTA or Strep-Tactin)) YNFHLSDMQAQLEQQAAEEETLKQQFSTKAFQAANLEAYKAQMKEMEESFGALLRQLPSDTEVPGLLEDITRTGLGSGLEFEEIKLLPEVAQQFYIELPIQISVVGGYHDLATFVSGVSSLPRIVTLHDFEIKPVAPGSTSKLRMSILAKTYRYNDKGLKK
Ans. 208
